target: human IL-23R (Homo sapiens, UniProt Q5VWK5); assay: biochemical
Sequence (Q5VWK5 22-629): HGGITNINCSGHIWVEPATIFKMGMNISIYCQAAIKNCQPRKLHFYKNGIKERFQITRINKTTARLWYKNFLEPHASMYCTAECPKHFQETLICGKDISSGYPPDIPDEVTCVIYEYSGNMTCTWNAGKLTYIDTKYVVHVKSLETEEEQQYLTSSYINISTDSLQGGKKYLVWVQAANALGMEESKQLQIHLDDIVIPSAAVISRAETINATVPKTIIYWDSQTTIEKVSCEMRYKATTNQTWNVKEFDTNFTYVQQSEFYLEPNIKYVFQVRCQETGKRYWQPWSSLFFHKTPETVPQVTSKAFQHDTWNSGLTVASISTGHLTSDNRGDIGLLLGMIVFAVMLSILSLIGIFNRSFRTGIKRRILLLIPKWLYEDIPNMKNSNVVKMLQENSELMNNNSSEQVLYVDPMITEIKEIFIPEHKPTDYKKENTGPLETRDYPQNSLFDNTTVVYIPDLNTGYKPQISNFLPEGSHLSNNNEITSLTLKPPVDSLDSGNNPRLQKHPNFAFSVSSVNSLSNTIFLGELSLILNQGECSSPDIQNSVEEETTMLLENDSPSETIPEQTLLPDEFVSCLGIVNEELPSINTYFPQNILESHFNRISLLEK
*1 amine or outer side, *2 acyl side, *3 side chain or, on linkers, in order; H or OH if unused. Where a SMILES comes first, the peptide text is derived from it. Bridges are numbered along the chain shown (N, C = ends). [ ]: non-standard residue; d: D form. The star is where a group is joined. 2Nal = N[C@@H](Cc1ccc2ccccc2c1)C(=O)O; AEF = NCCOc1ccc(C[C@H](N)C(=O)O)cc1; X1 = O=C(Cc1ccc(CN[*:1])cc1)[*:2]; 3Pal = N[C@@H](Cc1cccnc1)C(=O)O; αMeL = CC(C)C[C@](C)(N)C(=O)O; CH2COCH2 = O=C(C[*:1])C[*:2]; Pyrrolidide = C1CCN(*)C1; Dab = NCC[C@H](N)C(=O)O; βAla = NCCC(=O)O
Listing of recorded % displacement (hIL-23R binding) by entry.
Give the quantity in %, number only.

Example entries begin here.
CC(C)C[C@]1(C)NC(=O)[C@H](Cc2ccc3ccccc3c2)NC(=O)[C@H](Cc2ccc(OCCN)cc2)NC(=O)[C@@H]2CSCC(=O)CSC[C@H](NC(=O)[C@H](CO)NC(=O)[C@H](Cc3cccnc3)NC(=O)CCNC(=O)CC[C@@H](C(=O)N[C@H](CCCNC(=N)N)C(N)=O)NC1=O)C(=O)N[C@@H](Cc1c[nH]c3ccccc13)C(=O)N[C@@H](CCC(N)=O)C(=O)N2 [Compound 1] ([βAla][3Pal]SCWQC[AEF][2Nal][αMeL]E[dR]-NH2; linker 4-7 via CH2COCH2; lactam N-11) : 105
CNC(=O)[C@H](Cc1cncnc1)NC(=O)[C@H](CCN)NC(=O)[C@@H]1CCC(=O)NCc2ccc(cc2)CC(=O)N[C@@H](CO)C(=O)N[C@H]2CCC(=O)NCC[C@H](NC(=O)[C@H](CCC(N)=O)NC(=O)[C@H](Cc3c[nH]c4ccccc34)NC2=O)C(=O)N[C@@H](Cc2ccc(OCCN)cc2)C(=O)N[C@@H](Cc2ccc3ccccc3c2)C(=O)N[C@@](C)(CC(C)C)C(=O)N1 [Compound 19] : 103
CNC(=O)[C@H](Cc1cccnc1)NC(=O)[C@H](CCN)NC(=O)[C@@H]1CCC(=O)NCc2ccc(cc2)CC(=O)N[C@@H](C)C(=O)N[C@H]2CCC(=O)NCC[C@H](NC(=O)[C@H](CCC(N)=O)NC(=O)[C@H](Cc3c[nH]c4ccccc34)NC2=O)C(=O)N[C@@H](Cc2ccc(OCCN)cc2)C(=O)N[C@@H](CC2CC2)C(=O)NC(C)(C)C(=O)N1 [Compound 42] : 100
CNC(=O)[C@H](Cc1cccnc1)NC(=O)[C@H](COC)NC(=O)[C@@H]1CCC(=O)NCc2ccc(cc2)CC(=O)N[C@@H](CO)C(=O)N[C@H]2CCC(=O)NCC[C@H](NC(=O)[C@H](CCC(N)=O)NC(=O)[C@H](Cc3c[nH]c4ccccc34)NC2=O)C(=O)N[C@@H](Cc2ccc(OCCN)cc2)C(=O)N[C@@H](Cc2ccc3ccccc3c2)C(=O)N[C@@](C)(CC(C)C)C(=O)N1 [Compound 37] : 95
CC(C)C[C@]1(C)NC(=O)[C@H](Cc2ccc3ccccc3c2)NC(=O)[C@H](Cc2ccc(OCCN)cc2)NC(=O)[C@@H]2CCNC(=O)CC[C@H](NC(=O)[C@H](CO)NC(=O)Cc3ccc(cc3)CNC(=O)CC[C@@H](C(=O)NCC[C@H](N)C(=O)N[C@@](C)(Cc3cccnc3)C(N)=O)NC1=O)C(=O)N[C@@H](Cc1c[nH]c3ccccc13)C(=O)N[C@@H](CCC(N)=O)C(=O)N2 [Compound 15] : 96

Q. Give reported % displacement (hIL-23R binding) for CNC(=O)[C@H](Cc1cccnc1)NC(=O)[C@H](CCN)NC(=O)[C@@H]1CCC(=O)NCc2ccc(cc2)CC(=O)N[C@@H](C)C(=O)N[C@H]2CCC(=O)NCC[C@H](NC(=O)[C@H](CCC(N)=O)NC(=O)[C@H](Cc3c[nH]c4ccccc34)NC2=O)C(=O)N[C@@H](Cc2ccc(OCCN)cc2)C(=O)N[C@@H](Cc2ccc3ccccc3c2)C(=O)N[C@@](C)(CC(C)C)C(=O)N1 [Compound 20] (human IL-23R (Homo sapiens, UniProt Q5VWK5))
A. 97

Q. Give reported % displacement (hIL-23R binding) for CC(C)C[C@]1(C)NC(=O)[C@H](Cc2ccc3ccccc3c2)NC(=O)[C@H](Cc2ccc(OCCN)cc2)NC(=O)[C@@H]2CCNC(=O)CC[C@H](NC(=O)[C@H](CO)NC(=O)Cc3ccc(cc3)CNC(=O)CC[C@@H](C(=O)N[C@@H](CCN)C(=O)N[C@H](Cc3c[nH]cn3)C(N)=O)NC1=O)C(=O)N[C@@H](Cc1c[nH]c3ccccc13)C(=O)N[C@@H](CCC(N)=O)C(=O)N2 [Compound 13] (human IL-23R (Homo sapiens, UniProt Q5VWK5))
A. 100

Q. Give reported % displacement (hIL-23R binding) for CC(C)C[C@]1(C)NC(=O)[C@H](Cc2ccc3ccccc3c2)NC(=O)[C@H](Cc2ccc(OCCN)cc2)NC(=O)[C@@H]2CSCC(=O)CSC[C@H](NC(=O)[C@H](CO)NC(=O)CCNC(=O)[C@H](Cc3cccnc3)NC(=O)CC[C@@H](C(=O)N[C@H](CCCNC(=N)N)C(N)=O)NC1=O)C(=O)N[C@@H](Cc1c[nH]c3ccccc13)C(=O)N[C@@H](CCC(N)=O)C(=O)N2 [Compound 2] ([3Pal][βAla]SCWQC[AEF][2Nal][αMeL]E[dR]-NH2; linker 4-7 via CH2COCH2; lactam N-11) (human IL-23R (Homo sapiens, UniProt Q5VWK5))
A. 103

Q. Give reported % displacement (hIL-23R binding) for CNC(=O)[C@H](Cc1cccnc1)NC(=O)[C@H](CCN)NC(=O)[C@@H]1CCC(=O)NCc2ccc(cc2)CC(=O)N[C@@H](CO)C(=O)N[C@H]2CCC(=O)NCC[C@H](NC(=O)[C@H](CCC(=O)N3CCCC3)NC(=O)[C@H](Cc3c[nH]c4ccccc34)NC2=O)C(=O)N[C@@H](Cc2ccc(OCCN)cc2)C(=O)N[C@@H](Cc2ccc3ccccc3c2)C(=O)N[C@@](C)(CC(C)C)C(=O)N1 [Compound 27] ([X1]SEWE(Pyrrolidide)[Dab][AEF][2Nal][αMeL]E[Dab][3Pal]-NHMe; lactam 3-6, N-10) (human IL-23R (Homo sapiens, UniProt Q5VWK5))
A. 97

Q. Give reported % displacement (hIL-23R binding) for CC(C)C[C@]1(C)NC(=O)[C@H](Cc2ccc3ccccc3c2)NC(=O)[C@H](Cc2ccc(OCCN)cc2)NC(=O)[C@@H]2CCNC(=O)CC[C@H](NC(=O)[C@H](CO)NC(=O)Cc3ccc(cc3)CNC(=O)CC[C@@H](C(=O)N[C@@H](CCN)C(=O)N[C@@H](Cc3cn(C)cn3)C(N)=O)NC1=O)C(=O)N[C@@H](Cc1c[nH]c3ccccc13)C(=O)N[C@@H](CCC(N)=O)C(=O)N2 [Compound 14] (human IL-23R (Homo sapiens, UniProt Q5VWK5))
A. 102
